- SYSTEM: human EP2 receptors (Homo sapiens, UniProt P43116)
- Construct: expressed in transfected cells; host or cells: HEK 293
- Sequence (P43116 whole entry): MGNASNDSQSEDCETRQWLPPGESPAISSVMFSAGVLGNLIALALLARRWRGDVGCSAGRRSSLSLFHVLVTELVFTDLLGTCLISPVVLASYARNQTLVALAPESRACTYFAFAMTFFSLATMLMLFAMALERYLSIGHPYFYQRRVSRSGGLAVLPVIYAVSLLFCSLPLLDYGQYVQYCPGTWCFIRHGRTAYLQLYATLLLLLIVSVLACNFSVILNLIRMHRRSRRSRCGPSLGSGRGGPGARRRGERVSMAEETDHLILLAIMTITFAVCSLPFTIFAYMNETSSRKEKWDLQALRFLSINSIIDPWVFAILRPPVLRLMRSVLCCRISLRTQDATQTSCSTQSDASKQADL
- METHOD SUMMARY: Competition radioligand binding ([3H]PGE2), EP2
- CONDITION NOTES: unit inferred; read-out: EP2 data Ki
READOUT NAME: Ki (nM)

compound="CCCCCCC(O)c1ccc(N2C(=O)CC[C@@H]2COCc2ccc(C(=O)O)s2)cc1 (single isomer, unassigned) [drawing 152]" readout_name=Ki quantitative_readout=229

[a] CCCCCC(O)c1ccc(N2C(=O)CC[C@@H]2COCc2ccc(C(=O)O)o2)cc1 (some centres unmarked)
[b] CCCCCCC(O)c1ccc(N2C(=O)CC[C@@H]2COCc2ccc(C(=O)O)s2)cc1 (some centres unmarked) [drawing 141]
[c] CCCCCC(O)c1ccc(N2C(=O)CC[C@@H]2CCCc2ccc(C(=O)O)s2)cc1 (single isomer, unassigned) [drawing 179]
Q: Sort by Ki, descending. Put the labels in the order asked and list them.
Ans: a, b, c

[A] CCCCCC(=O)c1ccc(N2C(=O)CC[C@@H]2COCc2ccc(C(=O)O)s2)cc1
[B] CCCCCC(O)c1ccc(N2C(=O)CC[C@@H]2CCCc2ccc(C(=O)O)s2)cc1 (single isomer, unassigned) [drawing 151]
Q: Please compare: A and B . Report which one has the smaller Ki value. Kindly state the label of the option you pick.
Ans: B
(B: 15 nM, A: 163 nM)

Data credit: patent US7799821B2
